All figures here come from the kinase profiling compilation of Christmann-Franck et al. (2016).

# targetOrSystem: STK33 (human)
# experiment: radiometric filter-binding kinase assay, Kinase HotSpot
# experimentalContext: compound 0.5 µM; ATP 10 µM
residual activity under 80% gets Criterion met, anything at or over 80% gets Criterion not met.

Some entries whose results are on file:
Cc1cc(Nc2nc(-c3ccccc3)nc3ccccc23)n[nH]1	Criterion met
COc1cc2c(Nc3ccc(Br)cc3F)ncnc2cc1OCC1CCN(C)CC1	Criterion not met
CCc1nc(-c2ccc(OC)cc2)[nH]c1-c1ccncc1	Criterion not met
O=c1[nH]c2ccccc2n1C1CCN(Cc2ccc(-c3nc4cc5[nH]cnc5cc4nc3-c3ccccc3)cc2)CC1	Criterion not met
N/C(=N\N=C/c1ccc(-c2cccc([N+](=O)[O-])c2)o1)N[N+](=O)[O-]	Criterion not met

## Task Dear reviewer, please state whether "Cn1cc(/C=C2\C(=O)Nc3ccc(S(N)(=O)=O)cc32)c2ccccc21" has residual activity strictly beneath 80%.
## Result Criterion met

## Task I wonder whether "O=C1NC(=O)c2cc(Nc3ccc(F)cc3)c(Nc3ccc(F)cc3)cc21" has residual activity below 80%. Can you tell?
## Result Criterion not met

====

# targetOrSystem: FRK (human) (UniProt P42685)
# Sequence (P42685 whole entry, looked up): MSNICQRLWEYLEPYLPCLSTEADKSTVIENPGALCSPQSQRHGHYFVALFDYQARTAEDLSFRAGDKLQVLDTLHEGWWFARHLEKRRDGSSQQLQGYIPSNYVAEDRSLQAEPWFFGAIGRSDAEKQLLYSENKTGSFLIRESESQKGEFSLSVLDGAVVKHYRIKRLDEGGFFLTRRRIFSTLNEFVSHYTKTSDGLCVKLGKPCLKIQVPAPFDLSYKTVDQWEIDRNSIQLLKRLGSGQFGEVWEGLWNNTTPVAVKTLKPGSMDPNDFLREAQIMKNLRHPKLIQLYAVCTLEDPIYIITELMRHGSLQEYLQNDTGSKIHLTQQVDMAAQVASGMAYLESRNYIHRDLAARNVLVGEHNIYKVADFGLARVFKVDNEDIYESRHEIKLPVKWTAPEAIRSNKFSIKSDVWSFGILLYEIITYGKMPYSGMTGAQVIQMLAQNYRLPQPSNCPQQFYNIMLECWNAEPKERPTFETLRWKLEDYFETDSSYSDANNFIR
# experiment: radiometric filter-binding kinase assay, Kinase HotSpot
# experimentalContext: compound 0.5 µM; ATP 10 µM
Reported residual activity by item:
Lab book: enter the figure in %, no units written.

## Task Using the record for "O=C1NC(=O)c2cc(Nc3ccc(F)cc3)c(Nc3ccc(F)cc3)cc21" , state its measured residual activity.
## Result 97.2

====

Documented residual activity across a set of compounds
# targetOrSystem: MARK1 (human) (UniProt Q9P0L2)
# Sequence (Q9P0L2 whole entry, looked up): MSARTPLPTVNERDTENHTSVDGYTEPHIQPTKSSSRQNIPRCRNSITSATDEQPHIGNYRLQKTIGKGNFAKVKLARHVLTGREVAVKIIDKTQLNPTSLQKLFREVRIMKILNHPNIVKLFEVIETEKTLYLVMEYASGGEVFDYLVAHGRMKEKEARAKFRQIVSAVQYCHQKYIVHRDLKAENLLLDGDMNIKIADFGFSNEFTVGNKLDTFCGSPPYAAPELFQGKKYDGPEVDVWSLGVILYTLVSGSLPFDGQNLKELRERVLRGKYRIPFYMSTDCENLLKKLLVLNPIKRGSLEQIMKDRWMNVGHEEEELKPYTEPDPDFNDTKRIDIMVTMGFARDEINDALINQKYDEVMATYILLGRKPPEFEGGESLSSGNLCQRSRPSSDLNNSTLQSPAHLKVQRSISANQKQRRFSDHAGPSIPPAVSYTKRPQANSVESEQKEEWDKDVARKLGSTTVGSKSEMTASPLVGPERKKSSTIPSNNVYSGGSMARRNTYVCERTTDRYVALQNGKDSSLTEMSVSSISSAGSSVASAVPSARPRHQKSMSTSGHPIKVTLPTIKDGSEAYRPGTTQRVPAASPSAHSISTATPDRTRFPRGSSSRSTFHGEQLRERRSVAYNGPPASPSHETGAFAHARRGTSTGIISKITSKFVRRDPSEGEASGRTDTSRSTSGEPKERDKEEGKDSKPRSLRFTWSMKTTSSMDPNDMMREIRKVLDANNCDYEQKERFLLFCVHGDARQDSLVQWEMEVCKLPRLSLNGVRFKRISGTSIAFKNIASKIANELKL
# experiment: radiometric filter-binding kinase assay, Kinase HotSpot
# experimentalContext: compound 0.5 µM; ATP 10 µM
Respond numerically; units are % and should not be typed.

N#Cc1c(NC(=O)c2cccc3ccccc23)sc2c1CCCC2	100
O=C1NC(=O)c2c1c1c3ccccc3[nH]c1c1[nH]c3cc(Br)ccc3c21	42
Cn1cc(/C=C2\C(=O)Nc3ccc(S(N)(=O)=O)cc32)c2ccccc21	40.4
CCOc1cc2ncnc(Nc3cccc(Br)c3)c2cc1OCC	90.3
N#CCCc1ccc2c(c1)-c1[nH]c3ccc([N+](=O)[O-])cc3c1CC(=O)N2	67.4
c1ccc(-c2cnc(Nc3ccc(OCCN4CCCC4)cc3)s2)cc1	90.1
CCc1nc(-c2ccc(OC)cc2)[nH]c1-c1ccncc1	99.2
O=C(O)c1ccc2c3c1cccc3c(=O)n1c3ccccc3nc21	79.5

## Task In one line, give reported residual activity of the entry "Nc1ncnc2c1cnn2-c1ccccc1" .
## Result 94.8

## Task Give a short answer stating reported residual activity for "COc1cc2c(cc1OC)-c1[nH]nc(Nc3cccc(F)c3)c1C2" .
## Result 96.1

## Task // Input: "O=S(=O)(NCCNC/C=C/c1ccc(Br)cc1)c1cccc2cnccc12" . Output its residual activity only.
## Result 91.2

## Task Recall and state the measured residual activity for "O=C1NC(=O)c2cc(Nc3ccc(F)cc3)c(Nc3ccc(F)cc3)cc21" .
## Result 98.9

## Task Using known records, supply residual activity for "Cc1cc(Nc2nc(-c3ccccc3)nc3ccccc23)n[nH]1"
## Result 93.7

## Task Give reported residual activity value for "N#C/C(=C1/Nc2ccccc2S1)c1ccnc(NCCc2cccnc2)n1"
## Result 97.6

## Task Report residual activity, nothing else, for this compound: "O=c1cc(N2CCOCC2)oc2c(-c3ccccc3)cccc12"
## Result 100

## Task Read off the recorded residual activity for "O=c1c(-c2ccc(F)cc2)c(-c2ccncc2)[nH]n1-c1ccc(Cl)cc1"
## Result 94.5

## Task Give the value of residual activity reported for the following: "COc1cc2ncnc(Nc3ccc(O)c(Br)c3)c2cc1OC"
## Result 94.8

## Task # return recorded residual activity for entry "COc1cc2c(N3CCN(C(=O)Nc4ccc(OC(C)C)cc4)CC3)ncnc2cc1OCCCN1CCCCC1"
## Result 89.9

## Task For "N/C(=N\N=C/c1ccc(-c2cccc([N+](=O)[O-])c2)o1)N[N+](=O)[O-]" , write its residual activity.
## Result 90.7

## Task Look up and state reported residual activity for "O=c1c2ccccc2[nH]c(=S)n1CCN1CCC(=C(c2ccc(F)cc2)c2ccc(F)cc2)CC1"
## Result 99.7
